Exercise: for every item that follows, state its recorded melting point.
Answers are plain numbers, in °C.

• Cc1ccc(N)c([N+](=O)[O-])c1 = 117
• CC(=O)c1ccc2ccccc2c1 = 54
• NCCCCCCO = 57
• CC(C)(C)c1ccc2c(c1)OCCOCCOc1cc(C(C)(C)C)ccc1OCCOCCO2 = 110
• O=C(/C=C/c1ccc(-c2ccc(Br)cc2)o1)c1ccco1 = 165
• COc1ccccc1N1CCN(CCCC(=O)c2ccc(F)cc2)CC1 [4-[4-(o-Methoxyphenyl)-1-piperazinyl]-p-fluorobutyrophenone] = 68
• CC=C(C)C = -134
• CC1(C)C(=O)OC2=C(CC3C4CC=C5CC(O)CCC5(C)C4CCC23C)C1c1ccccc1 (stereo not given) = 233
• N#Cc1cccc(C=O)c1 = 77
• O=C(c1ccccc1)c1c(F)c(F)c(F)c(F)c1F = 38

Batch: melting point for all items listed.
1. Nc1nc2c(ncn2COCCO)c(=O)[nH]1
2. O=[N+]([O-])c1c(Cl)c(Cl)c(Cl)c(Cl)c1Cl
3. O=C(c1ccccc1)C(O)c1ccccc1 (stereo not given)

Solution:
1. 255
2. 144
3. 134

====

Criterion: melting point meeting or surpassing -10 °C. Met: Satisfied. Not met: Not satisfied.

- CSc1ccc(C(=O)c2[nH]c(=O)[nH]c2C)cc1: Satisfied
- COc1cccc(F)c1B(O)O: Satisfied

Next up:
Exercise: Check this molecule for melting point at or above -10 °C: C#CCCCCCCCC [1-decyne]
Solution: Not satisfied

====

Exercise: for every item that follows, state its recorded melting point.
One number for each entry, in °C.

Sample answers from the record:
• CCC(C)(C)C(=O)O[C@H]1C[C@@H](C)C=C2C=C[C@H](C)[C@H](CC[C@@H]3C[C@@H](O)CC(=O)O3)[C@H]21 = 136
• c1ccc(OCCOc2ccccc2)cc1 = 95
• CC(C)c1ccc(B(O)O)cc1 = 143
• Oc1ccc2ccccc2c1Br = 79
• CCCCCCC(=O)O [heptanoic acid] = -8
• Oc1cccc(Cl)n1 [2-chloro-6-hydroxypyridine] = 130
• NCc1ccccc1 [Benzylamine] = 10
• CCI [Iodoethane] = -108

Batch: melting point for all items listed.
1. COc1cccc(C=O)c1OC
2. C=C(CC)C(=O)c1ccc(OCC(=O)O)c(Cl)c1Cl
3. CCCC(=O)OC [Methyl butyrate]

Solution:
1. 52
2. 122
3. -95

Batch: melting point for all items listed.
1. COc1ccc(/C=C/C(=O)c2ccccc2)cc1OC
2. CC(=O)Nc1ccc([N+](=O)[O-])cn1
3. NC(=O)c1ccc(Cl)cc1 [4-chlorobenzamide]
4. Clc1nc2ccccc2[nH]1
5. COc1ccc(B(O)O)c(OC)n1
6. CC(=O)CC(C)(C)O [4-Hydroxy-4-methylpentan-2-one]
7. [C-]#[N+]C1CCCCC1 [Cyclohexyl isocyanide]
8. OCCN(CCO)CCO

Solution:
1. 89
2. 200
3. 178
4. 183
5. 129
6. -50
7. 6
8. 20

Batch: melting point for all items listed.
1. c1ccc2c(c1)ccc1cc3c(ccc4ccccc43)cc12 [Dibenz[ah]anthracene]
2. CN1/C(=C(\O)Nc2ccccn2)C(=O)c2ccccc2S1(=O)=O
3. C/C=C/CC [trans-2-pentene]

Solution:
1. 269
2. 198
3. -140

====

// classify: if (melting point < 100 °C) met else not met

Example entries and their recorded answers appear below.
- CCCOC(=O)c1ccc(O)cc1 [Propyl 4-hydroxybenzoate]: met
- O=C(CS(=O)C(c1ccccc1)c1ccccc1)NO (configuration not stated): not met
- OCCCCO [1,4-Butanediol]: met

Exercise: Item C=CCOc1ccc(CC(=O)O)cc1Cl : melting point beneath 100 °C, strictly?
Solution: met

Exercise: Item c1cc2ccc3cccc4ccc(c1)c2c34 [pyrene] : melting point beneath 100 °C, strictly?
Solution: not met

Exercise: Item OB(O)c1cccnc1OCc1ccccc1 : melting point beneath 100 °C, strictly?
Solution: not met

Exercise: Item Cc1ncc(COP(=O)(O)O)c(C=O)c1O [Pyridoxal Phosphate] : melting point beneath 100 °C, strictly?
Solution: not met

Exercise: Item CC1(C)O[C@@H](CO)[C@H](CO)O1 : melting point beneath 100 °C, strictly?
Solution: met

Exercise: Item CCOC(=O)Cc1ccc(N)cc1 [ethyl 4-aminophenylacetate] : melting point beneath 100 °C, strictly?
Solution: met

Exercise: Item OB(O)c1ccc(F)cc1F : melting point beneath 100 °C, strictly?
Solution: not met

Exercise: Item O=C(O)c1ccccc1C(=O)O : melting point beneath 100 °C, strictly?
Solution: not met

Exercise: Item CC1=CC(=O)c2ccccc2C1=O : melting point beneath 100 °C, strictly?
Solution: not met

Exercise: Item OB(O)c1ccccc1O [2-hydroxybenzeneboronic acid] : melting point beneath 100 °C, strictly?
Solution: not met

Exercise: Item FC(F)Cl : melting point beneath 100 °C, strictly?
Solution: met

====

Criterion: melting point meeting or surpassing 50 °C. Met: 1.0. Not met: 0.0.

Example entries and their recorded answers appear below.
* COc1ccc(CC(=O)O)cc1OC [(3,4-Dimethoxyphenyl)acetic acid] | 1.0
* CC(=O)c1ccccc1[N+](=O)[O-] [o-nitroacetophenone] | 0.0
* O=C(Oc1ccccc1)c1ccccc1O [phenyl salicylate] | 0.0

Exercise: Check this molecule for melting point at or above 50 °C: NS(=O)(=O)c1cc2c(cc1Cl)NC(C1CC3C=CC1C3)NS2(=O)=O (stereo not given) [Cyclothiazide]
Solution: 1.0

Exercise: Check this molecule for melting point at or above 50 °C: COc1cc(C(C)=O)ccc1O [4'-hydroxy-3'-methoxyacetophenone]
Solution: 1.0

====

Note: every record was labeled by where its melting point sits among lo (below 60 °C), mid (60 °C to below 100 °C), hi (100 °C or more)

Example entries and their recorded answers appear below.
- CC(C)(C)I [2-Iodo-2-methylpropane]: lo
- O=Cc1ccc(C(F)(F)F)cc1: lo
- Cc1ccc(C)c(B(O)O)c1: hi
- Cc1ccc(Sc2ccccc2NS(=O)(=O)c2ccc(C)cc2)cc1: mid

Exercise: Category of O=C(O)c1cc(O)ccc1O , please.
Solution: hi

Exercise: Category of ClC(Cl)=C(Cl)c1c(Cl)c(Cl)c(Cl)c(Cl)c1Cl , please.
Solution: mid

Exercise: Category of O=C1c2ccccc2C(=O)c2ccccc21 , please.
Solution: hi

Exercise: Category of COc1ccc(B(O)O)c(OC)c1OC , please.
Solution: mid

Exercise: Category of CCCCCOCCCCC [1-(Pentyloxy)pentane] , please.
Solution: lo

====

Exercise: for every item that follows, state its recorded melting point.
Give bare numbers, in °C.

Sample answers from the record:
• CCBr [Bromoethane] = -119
• Nc1ccccc1CCc1ccccc1N [2,2'-Ethane-1,2-diyldianiline] = 33

Batch: melting point for all items listed.
1. C=CC [Propylene]
2. C1CO1 [Oxirane]
3. O=[N+]([O-])c1cccc2cccc(/C=N/c3ccccc3)c12 [N-[(1E)-(8-nitronaphthalen-1-yl)methylidene]aniline]

Solution:
[-185, -111, 115]

Exercise: Recorded melting point for Fc1ccccc1F [1,2-difluorobenzene] , please?
Solution: -34

====

Exercise: for every item that follows, state its recorded melting point.
Numbers only, in °C.

Sample answers from the record:
- Oc1cccc(N2CCOCC2)c1 [3-(4-morpholinyl)phenol]: 130
- CCOCCOC(C)=O [2-ethoxyethyl acetate]: -62
- C/C=C/C1Nn2c(nnc2-c2ccc(OC)cc2)S1 (stereo not given): 81
- COc1ccc(O)cc1OC [3,4-dimethoxyphenol]: 83
- CC(C)S [2-propanethiol]: -131

Batch: melting point for all items listed.
1. Cc1cccc(C(C)(C)C)c1 [3-tert-butyltoluene]
2. O=C(O)c1ccccc1C(=O)c1ccccc1 [2-benzoylbenzoic acid]
3. SC(c1ccccc1)(c1ccccc1)c1ccccc1 [triphenylmethyl mercaptan]
4. CC=C1CCC2C3CCC4CC(OC(C)=O)CCC4(C)C3CCC12C (stereo not given) [pregn-17-en-3-yl acetate]
5. C[C@@H]1C[C@H]2[C@@H]3CCC4=CC(=O)C=C[C@]4(C)[C@@]3(F)[C@@H](O)C[C@]2(C)[C@@]1(O)C(=O)CO [Dexamethasone]
6. COc1ccc(B(O)O)cc1C [4-methoxy-3-methylbenzeneboronic acid]
7. CC(=O)OO [Ethaneperoxoic acid]
8. CN(C)C(=O)Nc1ccccc1 [fenuron]

Solution:
1. -41
2. 129
3. 106
4. 119
5. 262
6. 215
7. 0.1
8. 134

Batch: melting point for all items listed.
1. CC(C)[C@H](NC(=O)OCC1c2ccccc2-c2ccccc21)C(=O)O [N-fmoc-L-valine]
2. CC12CCC3C(CCC4CCCCC43C)C1CC(=O)C2 (stereo not given) [androstan-16-one]
3. CCOC(=O)N1c2ccccc2C=CC1OCC (stereo not given) [2-ethoxy-1-ethoxycarbonyl-1,2-dihydroquinoline]
4. CCCCCCCCCCCC(=O)OOC(=O)CCCCCCCCCCC [Diundecylperoxyanhydride]
5. Clc1ccccn1 [2-chloropyridine]
6. ClC1=C(Cl)C2(Cl)C3C(Cl)C=CC3C1(Cl)C2(Cl)Cl (stereo not given) [Heptachlor]
7. Cc1nccn1CC1CCc2c(c3ccccc3n2C)C1=O (stereo not given) [ondansetron]

Solution:
[144, 108, 65, 56, -46, 95, 231]
